The measured values listed here are drawn from ChEMBL document CHEMBL2034813.

# Tested on: Human immunodeficiency virus 1
# MEASUREMENT DESCRIPTION: Resistance ratio of ID50 for HIV1 reverse transcriptase Y188L mutant to ID50 HIV1 wild type reverse transcriptase
READOUT LABEL: Ratio
Respond with the number and no other words.

COMPOUND: Cc1c(N)nc(Nc2ccc(C#N)cc2)nc1[C@@H](C)c1c(F)cccc1F
READOUT LABEL: Ratio
OBSERVED RESULT: 3
--
COMPOUND: CCCN(C)c1nc(C(C)c2c(F)cccc2F)c(C)c(=O)[nH]1 (racemic)
READOUT LABEL: Ratio
OBSERVED RESULT: 50
--
COMPOUND: CCCN(C)c1nc([C@H](C)c2c(F)cccc2F)c(C)c(=O)[nH]1
READOUT LABEL: Ratio
OBSERVED RESULT: 100

Next item in the queue.
Recorded result, `Cc1c(N)nc(Nc2ccc(C#N)cc2)nc1[C@H](C)c1c(F)cccc1F` , Ratio: 0.4

###

Reported ID50 values for the following compounds.
# Tested on: Human immunodeficiency virus type 1 reverse transcriptase (Human immunodeficiency virus 1), Q72547 [L100I]

Check out these entries, answers already filled in.
COMPOUND: Cc1c(N)nc(Nc2ccc(C#N)cc2)nc1[C@@H](C)c1c(F)cccc1F
ID50: > 15000 nM
--
COMPOUND: Cc1c(N)nc(Nc2ccc(C#N)cc2)nc1[C@H](C)c1c(F)cccc1F
ID50: 150 nM
--
COMPOUND: CCCN(C)c1nc([C@@H](C)c2c(F)cccc2F)c(C)c(=O)[nH]1
ID50: 350 nM
--
COMPOUND: CCCN(C)c1nc([C@H](C)c2c(F)cccc2F)c(C)c(=O)[nH]1
ID50: 96 nM

Next item in the queue.
Recorded result, CCCN(C)c1nc(C(C)c2c(F)cccc2F)c(C)c(=O)[nH]1 (racemic) , ID50: 177 nM

###

# System: Human immunodeficiency virus 1
# MEASUREMENT DESCRIPTION: Resistance ratio of EC50 for HIV1 harboring reverse transcriptase K103N mutant to EC50 for wild type HIV1 NL4-3
# Format: functional
Reported Ratio EC50 values for the following compounds.
Respond with the number and no other words.

COMPOUND: Cc1c(N)nc(Nc2ccc(C#N)cc2)nc1[C@H](C)c1c(F)cccc1F
Ratio EC50: 8
--
COMPOUND: CCCN(C)c1nc(C(C)c2c(F)cccc2F)c(C)c(=O)[nH]1 (racemic)
Ratio EC50: 9
--
COMPOUND: Cc1c(N)nc(Nc2ccc(C#N)cc2)nc1[C@@H](C)c1c(F)cccc1F
Ratio EC50: 4
--
COMPOUND: CCCN(C)c1nc([C@H](C)c2c(F)cccc2F)c(C)c(=O)[nH]1
Ratio EC50: 8

Next item in the queue.
Recorded result, `Cc1ccnc2c1NC(=O)c1cccnc1N2C1CC1` , Ratio EC50: 47

###

Quick record of ID50 values for Human immunodeficiency virus type 1 reverse transcriptase (Human immunodeficiency virus 1).
Report the value in nM with no unit label.

Check out these entries, answers already filled in.
COMPOUND: Cc1c(N)nc(Nc2ccc(C#N)cc2)nc1[C@H](C)c1c(F)cccc1F
OBSERVED RESULT: 8
--
COMPOUND: CCCN(C)c1nc([C@H](C)c2c(F)cccc2F)c(C)c(=O)[nH]1
OBSERVED RESULT: 2
--
COMPOUND: CCCN(C)c1nc(C(C)c2c(F)cccc2F)c(C)c(=O)[nH]1 (racemic)
OBSERVED RESULT: 30
--
COMPOUND: Cc1c(N)nc(Nc2ccc(C#N)cc2)nc1[C@@H](C)c1c(F)cccc1F
OBSERVED RESULT: 180

Next item in the queue.
Case `CCCN(C)c1nc([C@@H](C)c2c(F)cccc2F)c(C)c(=O)[nH]1` , Human immunodeficiency virus type 1 reverse transcriptase (Human immunodeficiency virus 1), ID50 recorded as 975

###

Reported Ratio values for the following compounds.
# Test system: Human immunodeficiency virus 1
# MEASUREMENT DESCRIPTION: Resistance ratio of ID50 for HIV1 reverse transcriptase L100I mutant to ID50 HIV1 wild type reverse transcriptase

Check out these entries, answers already filled in.
COMPOUND: CCCN(C)c1nc(C(C)c2c(F)cccc2F)c(C)c(=O)[nH]1 (racemic)
Ratio: 6
//
COMPOUND: CCCN(C)c1nc([C@H](C)c2c(F)cccc2F)c(C)c(=O)[nH]1
Ratio: 50
//
COMPOUND: Cc1c(N)nc(Nc2ccc(C#N)cc2)nc1[C@H](C)c1c(F)cccc1F
Ratio: 20

Recorded result, `CCCN(C)c1nc([C@@H](C)c2c(F)cccc2F)c(C)c(=O)[nH]1` , Ratio: 0.4

###

# System: Human immunodeficiency virus 1
# MEASUREMENT DESCRIPTION: Resistance ratio of ID50 for HIV1 reverse transcriptase K103N mutant to ID50 HIV1 wild type reverse transcriptase
Reported Ratio values for the following molecules.
Respond with the number and no other words.

Check out these entries, answers already filled in.
MOLECULE: CCCN(C)c1nc([C@H](C)c2c(F)cccc2F)c(C)c(=O)[nH]1
TARGET OF ASSAY: Human immunodeficiency virus 1
READOUT LABEL: Ratio
OBSERVED RESULT: 48

MOLECULE: Cc1c(N)nc(Nc2ccc(C#N)cc2)nc1[C@H](C)c1c(F)cccc1F
TARGET OF ASSAY: Human immunodeficiency virus 1
READOUT LABEL: Ratio
OBSERVED RESULT: 1

MOLECULE: Cc1c(N)nc(Nc2ccc(C#N)cc2)nc1[C@@H](C)c1c(F)cccc1F
TARGET OF ASSAY: Human immunodeficiency virus 1
READOUT LABEL: Ratio
OBSERVED RESULT: 1.3

MOLECULE: Cc1ccnc2c1NC(=O)c1cccnc1N2C1CC1
TARGET OF ASSAY: Human immunodeficiency virus 1
READOUT LABEL: Ratio
OBSERVED RESULT: 20

Next item in the queue.
Case CCCN(C)c1nc(C(C)c2c(F)cccc2F)c(C)c(=O)[nH]1 (racemic) , Human immunodeficiency virus 1, Ratio recorded as 6

###

Reported Ratio values for the following compounds.
# Test system: Human immunodeficiency virus 1
# MEASUREMENT DESCRIPTION: Resistance ratio of ID50 for HIV1 reverse transcriptase Y181I mutant to ID50 HIV1 wild type reverse transcriptase
Respond with the number and no other words.

COMPOUND: Cc1c(N)nc(Nc2ccc(C#N)cc2)nc1[C@H](C)c1c(F)cccc1F
Ratio: 90
--
COMPOUND: Cc1ccnc2c1NC(=O)c1cccnc1N2C1CC1 [NEVIRAPINE]
Ratio: 87
--
COMPOUND: CCCN(C)c1nc(C(C)c2c(F)cccc2F)c(C)c(=O)[nH]1 (racemic)
Ratio: 40

Next item in the queue.
Case `CCCN(C)c1nc([C@H](C)c2c(F)cccc2F)c(C)c(=O)[nH]1` , Human immunodeficiency virus 1, Ratio recorded as 200

###

Reported ID50 values for the following molecules.
# Test system: Human immunodeficiency virus type 1 reverse transcriptase (Human immunodeficiency virus 1), Q72547 [V106A]
Report the value in nM with no unit label.

Check out these entries, answers already filled in.
MOLECULE: CCCN(C)c1nc([C@H](C)c2c(F)cccc2F)c(C)c(=O)[nH]1
OBSERVED RESULT: 3
--
MOLECULE: CCCN(C)c1nc(C(C)c2c(F)cccc2F)c(C)c(=O)[nH]1 (racemic)
OBSERVED RESULT: 19
--
MOLECULE: Cc1c(N)nc(Nc2ccc(C#N)cc2)nc1[C@@H](C)c1c(F)cccc1F
OBSERVED RESULT: 64

Recorded result, `CCCN(C)c1nc([C@@H](C)c2c(F)cccc2F)c(C)c(=O)[nH]1` , ID50: 120

Recorded result, `Cc1c(N)nc(Nc2ccc(C#N)cc2)nc1[C@H](C)c1c(F)cccc1F` , ID50: 0.3

###

# Test system: Human immunodeficiency virus 1
# MEASUREMENT DESCRIPTION: Resistance ratio of ID50 for HIV1 reverse transcriptase V106A mutant to ID50 HIV1 wild type reverse transcriptase
READOUT LABEL: Ratio
Respond with the number and no other words.

Check out these entries, answers already filled in.
COMPOUND: CCCN(C)c1nc([C@@H](C)c2c(F)cccc2F)c(C)c(=O)[nH]1
OBSERVED RESULT: 0.1
//
COMPOUND: Cc1c(N)nc(Nc2ccc(C#N)cc2)nc1[C@@H](C)c1c(F)cccc1F
OBSERVED RESULT: 0.3
//
COMPOUND: Cc1c(N)nc(Nc2ccc(C#N)cc2)nc1[C@H](C)c1c(F)cccc1F
OBSERVED RESULT: 0.04

Recorded result, CCCN(C)c1nc(C(C)c2c(F)cccc2F)c(C)c(=O)[nH]1 (racemic) , Ratio: 0.6

Recorded result, `CCCN(C)c1nc([C@H](C)c2c(F)cccc2F)c(C)c(=O)[nH]1` , Ratio: 1.5
